Target: T1, HuCD3E (Homo sapiens, UniProt P07766 23-126, limits assumed)
T1 construct: Recombinant analyte in SPR and antigen in ELISA; also called human CD3; human CD3 epsilon
T1 sequence (P07766 23-126 limits assumed): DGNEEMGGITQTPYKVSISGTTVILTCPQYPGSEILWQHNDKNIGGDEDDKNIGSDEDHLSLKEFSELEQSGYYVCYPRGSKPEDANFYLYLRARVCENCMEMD
Assay: SPR, Biacore 8K; CD3 Affinity column: Med; upper end of the range
pKd: −log10 of the molar value.
measurement-kind: pKd

Example results:
(Q) Consider the binder shown here: 47D10-V7-v5.4 (antibody, V domains shown) VH: EVQLVESGGGLVQPGGSLKLSCAASGFTFNTYAMNWVRQAPGKGLEWVARIRSKYNNYATYYWDSVKDRFTISRDDSKNTAYLQMNSLKTEDTAVYYCVRHGNFGNSYVSWFAYWGQGTLVTVSS VL: QTVVTQEPSLTVSPGGTVTLTCRSSTGAVTTSNYANWVQQKPGQAFRGLIGGTNKRAPGVPARFSGSLLGGKAALTLSGVQPEDEAIYFCALWYSNLWVFGGGTKLTVL What is its recorded pKd?
(A) ≥ 7.00

(Q) Consider the binder shown here: 32G4-V8-v5.2 (antibody, V domains shown) VH: EVQLVESGGGLVQPGGSLKLSCAASGFTFNTYAMNWVRQAPGKGLEWVARIRSKYNNYATYKADSVKDRFTISRDDSKNTAYLQMNSLKTEDTAVYYCVRHGNFGNSYVSWFAYWGQGTLVTVSS VL: QTVVTQEPSLTVSPGGTVTLTCRSSTGAVTTSNYANWVQQKPGQAFRGLIGGTNKRAPGVPARFSGSLLGGKAALTLSGVQPEDEAIYFCALWYSNLWVFGGGTKLTVL What is its recorded pKd?
(A) ≥ 7.00

Turning now to a further binder:
(Q) Consider the binder shown here: 47D10-V7-v5.3 (antibody, V domains shown) VH: EVQLVESGGGLVQPGGSLKLSCAASGFTFNTYAMNWVRQAPGKGLEWVARIRSKYNNYATYYADKVKDRFTISRDDSKNTAYLQMNSLKTEDTAVYYCVRHGNFGNSYVSWFAYWGQGTLVTVSS VL: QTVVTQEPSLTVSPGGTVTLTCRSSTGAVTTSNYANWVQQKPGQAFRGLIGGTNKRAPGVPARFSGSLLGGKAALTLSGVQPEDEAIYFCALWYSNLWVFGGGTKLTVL What is its recorded pKd?
(A) ≥ 7.00
